Tested on: Bacillus subtilis
Assay: Bactericidal activity against Bacillus subtilis MTCC 121 assessed as reduction in bacterial survival incubated for 24 hrs followed by transfer of microbial suspension to agar plates and measured at 24 hrs post transfer by agar well diffusion method
Format: functional
Conditions: MTCC 121, 24 h
measurementLabel: MBC
# output: number + unit

Reference set (3 entries):
{"molecularString": "O=C(c1cn(-c2ccc(F)cc2Br)nn1)c1c(-c2ccc(Cl)cc2)nc2sccn12", "measurementLabel": "MBC", "assayValue": "7.8 µg/mL"}
{"molecularString": "COc1cc(-n2cc(C(=O)c3c(-c4ccccc4)nc4sccn34)nn2)cc(OC)c1OC", "measurementLabel": "MBC", "assayValue": "7.8 µg/mL"}
{"molecularString": "O=C(c1cn(-c2ccc(F)cc2)nn1)c1c(-c2ccc(Cl)cc2)nc2sccn12", "measurementLabel": "MBC", "assayValue": "7.8 µg/mL"}

q: Sample COc1ccc(-c2nc3sccn3c2C(=O)c2cn(-c3ccc(OC)cc3)nn2)cc1 — what was its MBC?
a: 15.6 µg/mL

###

System: Micrococcus luteus
Test: Antibiofilm activity against Micrococcus luteus MTCC 2470 assessed as inhibition of biofilm formation by crystal violet staining-based microtitre plate assay
Format: functional, organism-based
Kindly apply the following: class 1 if IC50 is less than 10 µg/mL, class 0 in every other case.

# count of solved cases: 4
{"molecularString": "O=C(c1cn(-c2ccc(Br)cc2)nn1)c1c(-c2ccccc2)nc2sccn12", "className": "class 0"}
{"molecularString": "O=C(c1cn(-c2ccc(Cl)cc2)nn1)c1c(-c2ccccc2)nc2sccn12", "className": "class 0"}
{"molecularString": "O=C(c1cn(-c2ccc(Cl)cc2)nn1)c1c(-c2ccc(Cl)cc2)nc2sccn12", "className": "class 0"}
{"molecularString": "O=C(c1cn(-c2ccc(F)cc2Br)nn1)c1c(-c2ccccc2)nc2sccn12", "className": "class 0"}

q: Criterion: IC50 strictly below 10 µg/mL. Is it met by O=C(c1cn(-c2ccc(Br)cc2)nn1)c1c(-c2ccc(Cl)cc2)nc2sccn12 ?
a: class 0

q: Criterion: IC50 strictly below 10 µg/mL. Is it met by O=C(O)c1cn(C2CC2)c2cc(N3CCNCC3)c(F)cc2c1=O ?
a: class 1

###

Tested on: Bacillus subtilis
Assay: Bactericidal activity against Bacillus subtilis MTCC 121 assessed as reduction in bacterial survival incubated for 24 hrs followed by transfer of microbial suspension to agar plates and measured at 24 hrs post transfer by agar well diffusion method
Assay type: functional
Conditions: MTCC 121, 24 h
measurementLabel: MBC (µg/mL)
# unit: µg/mL | format: bare number

Reference set (2 entries):
{"compound": "COc1ccc(-n2cc(C(=O)c3c(-c4ccccc4)nc4sccn34)nn2)cc1", "tgt": "Bacillus subtilis", "readingUnit": "µg/mL", "assayValue": 7.8}
{"compound": "O=C(c1cn(-c2ccc(Cl)cc2)nn1)c1c(-c2ccccc2)nc2sccn12", "tgt": "Bacillus subtilis", "readingUnit": "µg/mL", "assayValue": 7.8}

q: Sample O=C(c1cn(-c2ccc(C(F)(F)F)cc2)nn1)c1c(-c2ccccc2)nc2sccn12 — what was its MBC?
a: 7.8

q: Sample COc1ccc(-c2nc3sccn3c2C(=O)c2cn(-c3ccc(F)cc3Br)nn2)cc1 — what was its MBC?
a: 15.6

q: Sample O=C(c1cn(-c2ccc(Cl)cc2)nn1)c1c(-c2ccc(Cl)cc2)nc2sccn12 — what was its MBC?
a: 7.8

q: Sample COc1ccc(-c2nc3sccn3c2C(=O)c2cn(-c3ccc(F)cc3)nn2)cc1 — what was its MBC?
a: 7.8

q: Sample O=C(O)c1cn(C2CC2)c2cc(N3CCNCC3)c(F)cc2c1=O [CIPROFLOXACIN] — what was its MBC?
a: 1.9

q: Sample COc1ccc(-c2nc3sccn3c2C(=O)c2cn(-c3ccc(Cl)cc3)nn2)cc1 — what was its MBC?
a: 7.8

q: Sample COc1ccc(-c2nc3sccn3c2C(=O)c2cn(-c3cc(OC)c(OC)c(OC)c3)nn2)cc1 — what was its MBC?
a: 31.2
